test system: HBsAg; experiment: microbe, parasite or virus in culture; type: cell-based, Hepatitis B virus; conditions: Hepatitis B virus, 144 h, read-out: Anti-viral activity (ED50) HbsAg
pEC50: −log10 of the molar value.
MEASUREMENT_TYPE: pEC50

{"columns": ["MOLECULE", "READOUT_VALUE"],
 "data": [
  ["O=C1OC(=O)c2c1cc1c(Br)cc3c(c1c2-c1cc2c(cc1Br)OCO2)OCO3 [ZHU-IX-120-1]", "< 5.00"],
  ["Cc1cc2ccc3c(c2c(-c2ccc4c(c2)OCO4)c1C)OCO3 [ZHU-IX-163-2]", "< 5.00"],
  ["Cc1cc2ccc3c(c2c(-c2ccc4c(c2)OCO4)c1CO)OCO3 [ZHU-IX-159]", 5.00],
  ["Cc1c(C(=O)O)cc2ccc3c(c2c1-c1ccc2c(c1)OCO2)OCO3 [ZHU-X-4]", "< 5.00"],
  ["O=C(O)c1c(CO)cc2ccc3c(c2c1-c1ccc2c(c1)OCO2)OCO3 [ZHU-IX-153]", "< 5.00"]
]}

Using the record for OCc1cc2c(Br)cc3c(c2c(-c2ccc4c(c2)OCO4)c1CO)OCO3 [ZHU-IX-135-1] , report its pEC50.
5.07

Follow-up entry: O=C1OCc2c1cc1ccc3c(c1c2-c1ccc2c(c1)OCO2)OCO3 [Compound 145]
5.40

Follow-up entry: O=C1OCc2c1cc1c(Br)cc3c(c1c2-c1cc2c(cc1Br)OCO2)OCO3 [ZHU-IX-143]
< 5.00

Follow-up entry: O=C1OC(=O)c2c1cc1cc3c(cc1c2-c1cc2c(cc1Br)OCO2)OCO3 [ZHU-IX-120-3]
< 5.00
